- measurement_target: Beta-2 adrenergic receptor (Cavia porcellus) (UniProt Q8K4Z4)
- Sequence (Q8K4Z4 whole entry, looked up): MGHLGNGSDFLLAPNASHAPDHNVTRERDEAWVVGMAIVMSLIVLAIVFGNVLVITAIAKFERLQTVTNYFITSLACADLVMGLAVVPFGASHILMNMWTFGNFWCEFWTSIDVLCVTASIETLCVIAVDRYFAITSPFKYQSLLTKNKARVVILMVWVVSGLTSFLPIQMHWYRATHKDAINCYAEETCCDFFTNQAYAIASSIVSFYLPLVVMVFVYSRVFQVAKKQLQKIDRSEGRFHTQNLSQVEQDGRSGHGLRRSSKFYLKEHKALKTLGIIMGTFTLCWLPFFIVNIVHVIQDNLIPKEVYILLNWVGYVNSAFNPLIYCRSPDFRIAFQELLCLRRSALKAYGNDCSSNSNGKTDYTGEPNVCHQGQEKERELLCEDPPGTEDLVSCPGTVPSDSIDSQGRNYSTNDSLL

smiles_string | measurement_target | pD2
COc1cc(C(C)(C)[C@@H]2NCCc3cc(O)c(O)cc32)cc(OC)c1OC | Beta-2 adrenergic receptor (Cavia porcellus) (UniProt Q8K4Z4) | 4.47
COc1cc([C@@H](C)[C@@H]2NCCc3cc(O)c(O)cc32)cc(OC)c1OC | Beta-2 adrenergic receptor (Cavia porcellus) (UniProt Q8K4Z4) | 8.39
COc1cc(C[C@@H]2NCCc3cc(O)c(O)cc32)cc(OC)c1OC | Beta-2 adrenergic receptor (Cavia porcellus) (UniProt Q8K4Z4) | 8.15
COc1cc([C@H](C)[C@@H]2NCCc3cc(O)c(O)cc32)cc(OC)c1OC | Beta-2 adrenergic receptor (Cavia porcellus) (UniProt Q8K4Z4) | 7.15
